target: Cytochrome P450 2C19 (Homo sapiens); test: Cytochrome panel assay with activity outcomes. Panel member name: p450-cyp2c19 Compounds with AC50 equal or less than 10 uM are considered active; format: functional
Sequence (P33261 whole entry): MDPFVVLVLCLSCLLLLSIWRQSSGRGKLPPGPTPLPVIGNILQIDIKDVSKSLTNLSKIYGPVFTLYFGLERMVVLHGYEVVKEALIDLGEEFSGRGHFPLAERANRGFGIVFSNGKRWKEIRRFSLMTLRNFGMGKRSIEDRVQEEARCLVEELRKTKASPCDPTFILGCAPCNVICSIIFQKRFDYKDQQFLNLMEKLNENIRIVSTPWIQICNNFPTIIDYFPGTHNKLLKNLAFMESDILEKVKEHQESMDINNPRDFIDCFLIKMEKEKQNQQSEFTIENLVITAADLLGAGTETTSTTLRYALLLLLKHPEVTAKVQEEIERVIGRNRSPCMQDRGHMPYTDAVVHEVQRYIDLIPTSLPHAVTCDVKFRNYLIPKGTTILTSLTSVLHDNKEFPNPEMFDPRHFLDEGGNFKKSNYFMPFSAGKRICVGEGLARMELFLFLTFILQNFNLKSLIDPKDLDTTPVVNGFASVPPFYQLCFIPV
measured-attribute: AC50

structure-smiles | test-value
O=C(Nc1ccc(-c2cc3ccccc3oc2=O)c(Cl)c1)c1cccnc1 | inconclusive
CCc1nc2cc(CC(=O)O)ccc2o1 | inconclusive
CCCN(CCC)CCc1cccc2c1CC(=O)N2 | inconclusive
CCOC(=O)c1c(C)[nH]c2ccc3c(c12)CN1CCc2cc(OC)ccc2[C@@H]1O3 | inconclusive
CNc1nc(-c2ccccc2OC)nc2ccccc12 | inconclusive

###

target: Rac GTPase-activating protein 1 (Homo sapiens); test: blockers of MgcRacGAP-driven Rac1 GTP hydrolysis – biochemical, ADP Hunter fluorescence, primary and confirmatory, confirmation (AID 624330); format: functional
Sequence (Q9H0H5 whole entry): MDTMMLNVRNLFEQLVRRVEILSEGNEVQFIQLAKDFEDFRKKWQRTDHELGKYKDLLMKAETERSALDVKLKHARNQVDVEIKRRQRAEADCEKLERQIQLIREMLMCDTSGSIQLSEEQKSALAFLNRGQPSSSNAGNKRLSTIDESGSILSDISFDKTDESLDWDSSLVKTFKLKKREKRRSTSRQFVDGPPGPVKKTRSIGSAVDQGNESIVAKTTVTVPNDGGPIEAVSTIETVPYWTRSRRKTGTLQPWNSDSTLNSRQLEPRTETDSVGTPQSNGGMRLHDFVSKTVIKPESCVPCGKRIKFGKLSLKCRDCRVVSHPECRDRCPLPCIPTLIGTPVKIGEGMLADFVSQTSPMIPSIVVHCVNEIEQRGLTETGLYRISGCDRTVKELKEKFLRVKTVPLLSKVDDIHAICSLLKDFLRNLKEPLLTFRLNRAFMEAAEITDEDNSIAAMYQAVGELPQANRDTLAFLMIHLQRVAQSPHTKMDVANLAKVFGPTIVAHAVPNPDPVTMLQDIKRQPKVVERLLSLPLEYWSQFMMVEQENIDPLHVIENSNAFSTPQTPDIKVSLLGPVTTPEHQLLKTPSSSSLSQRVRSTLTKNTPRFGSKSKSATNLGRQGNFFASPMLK
Calls of active or inactive are those of the source.
measured-attribute: IC50

compound | measured-attribute | test-value
COc1ccc(/C=N/Nc2nc3ccccc3[nH]2)cc1OC | IC50 | 74 µM (active)
Cc1ccsc1/C=N/Nc1cccc(C(=O)O)c1 | IC50 | 92.5 µM (active)
O=C(O)c1cccc(N2C(=O)/C(=C/c3ccc(SCc4ccc(Cl)cc4)o3)SC2=S)c1 | IC50 | 132 µM (active)
CCN(CC)c1ccc(/C=N/NC(=S)NC)c(O)c1 | IC50 | 58.2 µM (active)
CCc1ccc(O)c(/N=C/c2ccccc2O)c1 | IC50 | 36.9 µM (active)
Nc1nnc(S)n1N=C1C(=O)Nc2ccccc21 | IC50 | 57.4 µM (active)
O=C(CSc1nnnn1-c1ccc(F)cc1)c1ccc(O)c(O)c1 | IC50 | 80.6 µM (active)
Cc1ccc(Cl)c(OCCCN(C)Cc2ccccc2)c1 | IC50 | 165 µM (active)
Oc1ccc(N2CCN(Cc3cc4c(cc3Br)OCCO4)CC2)cc1 | IC50 | 66.7 µM (active)
O=C(c1ccccc1F)N1CCN(Cc2ccc3c(c2)OCO3)CC1 | IC50 | 125 µM (active)
COc1ccc(NC2CCCN(C(=O)c3csc(C)n3)C2)cc1 (stereo not drawn) | IC50 | 107 µM (active)
c1ccc2c(c1)Nc1ccccc1S2 | IC50 | 18.5 µM (active)
O=c1c2ccccc2n2c(=S)[nH]nc2n1-c1ccccc1 | IC50 | 25.8 µM (active)

###

target: Aminopeptidase N (Plasmodium falciparum FcB1/Columbia); test: malaria alanyl aminopeptidase activity blockers – biochemical, fluorogenic H-Leu-NHMec substrate, 1536-well (AID 1445); parameters: species or system Plasmodium falciparum 3D7, 3D7
Sequence (O96935 whole entry): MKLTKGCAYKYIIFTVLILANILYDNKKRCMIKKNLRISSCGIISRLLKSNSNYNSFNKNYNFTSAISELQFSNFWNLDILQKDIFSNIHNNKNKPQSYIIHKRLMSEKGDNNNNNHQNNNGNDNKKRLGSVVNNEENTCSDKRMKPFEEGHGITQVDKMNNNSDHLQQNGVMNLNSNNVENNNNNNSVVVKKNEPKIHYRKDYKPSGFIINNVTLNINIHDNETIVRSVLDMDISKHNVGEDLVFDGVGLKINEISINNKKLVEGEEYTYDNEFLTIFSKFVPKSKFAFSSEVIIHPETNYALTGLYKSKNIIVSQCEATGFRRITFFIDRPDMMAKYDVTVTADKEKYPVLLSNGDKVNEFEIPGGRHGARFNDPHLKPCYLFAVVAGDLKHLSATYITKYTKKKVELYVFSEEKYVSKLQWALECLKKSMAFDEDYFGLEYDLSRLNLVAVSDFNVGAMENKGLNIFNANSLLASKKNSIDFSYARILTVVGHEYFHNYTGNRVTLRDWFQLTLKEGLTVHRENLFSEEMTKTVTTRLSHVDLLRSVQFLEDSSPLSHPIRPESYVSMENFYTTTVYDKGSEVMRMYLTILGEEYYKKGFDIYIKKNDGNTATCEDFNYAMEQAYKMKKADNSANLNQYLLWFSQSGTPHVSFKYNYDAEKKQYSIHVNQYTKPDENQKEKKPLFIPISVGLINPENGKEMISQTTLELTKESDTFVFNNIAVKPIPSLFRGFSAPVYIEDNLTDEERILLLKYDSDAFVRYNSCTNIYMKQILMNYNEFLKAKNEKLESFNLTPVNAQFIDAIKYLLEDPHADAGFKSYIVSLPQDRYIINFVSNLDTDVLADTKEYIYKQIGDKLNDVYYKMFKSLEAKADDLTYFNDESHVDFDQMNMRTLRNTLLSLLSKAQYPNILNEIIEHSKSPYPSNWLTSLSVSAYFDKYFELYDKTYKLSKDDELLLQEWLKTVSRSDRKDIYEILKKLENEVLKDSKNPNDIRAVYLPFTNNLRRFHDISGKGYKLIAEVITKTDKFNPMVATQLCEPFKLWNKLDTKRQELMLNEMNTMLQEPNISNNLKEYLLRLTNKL
Active and inactive are the calls of the source.
Reported IC50 values for the following molecules.
measured-attribute: IC50

molecule | study-system | test-value
COc1c(O)cc2oc(-c3ccc(O)c(O)c3)cc(=O)c2c1O [EUPAFOLIN] | Aminopeptidase N (Plasmodium falciparum FcB1/Columbia) | 15.6 µM (active)
COc1cc(/C=C(/C#N)c2nc3ccccc3[nH]2)ccc1OCc1ccc(C(=O)O)o1 | Aminopeptidase N (Plasmodium falciparum FcB1/Columbia) | 52.1 µM (active)
CC1=NN(c2nc(-c3ccc(C)cc3)cs2)C(=O)C1N=Nc1ccccc1O (stereo unspecified) | Aminopeptidase N (Plasmodium falciparum FcB1/Columbia) | 3.37 µM (active)
O=C(O)c1cccc(NC(S)=NC(NC(=O)c2ccccc2[N+](=O)[O-])C(Cl)(Cl)Cl)c1 (stereo unspecified) | Aminopeptidase N (Plasmodium falciparum FcB1/Columbia) | 58.6 µM (active)
CCCN1C(=O)/C(=C/c2c(N3CCNC(=O)C3CC(=O)OC)nc3c(C)cccn3c2=O)SC1=S (stereo unspecified) | Aminopeptidase N (Plasmodium falciparum FcB1/Columbia) | 68.1 µM (active)
CC(=O)NNC(=O)c1sc(=S)n2c1[nH]c(=O)c1sccc12 | Aminopeptidase N (Plasmodium falciparum FcB1/Columbia) | 11.6 µM (active)

These data points were gathered from ChEMBL document CHEMBL1201862.
